This section presents molecules with their documented pIC50 values.
Measured On: ACK1 (Homo sapiens, UniProt Q07912)
Sequence (Q07912 whole entry): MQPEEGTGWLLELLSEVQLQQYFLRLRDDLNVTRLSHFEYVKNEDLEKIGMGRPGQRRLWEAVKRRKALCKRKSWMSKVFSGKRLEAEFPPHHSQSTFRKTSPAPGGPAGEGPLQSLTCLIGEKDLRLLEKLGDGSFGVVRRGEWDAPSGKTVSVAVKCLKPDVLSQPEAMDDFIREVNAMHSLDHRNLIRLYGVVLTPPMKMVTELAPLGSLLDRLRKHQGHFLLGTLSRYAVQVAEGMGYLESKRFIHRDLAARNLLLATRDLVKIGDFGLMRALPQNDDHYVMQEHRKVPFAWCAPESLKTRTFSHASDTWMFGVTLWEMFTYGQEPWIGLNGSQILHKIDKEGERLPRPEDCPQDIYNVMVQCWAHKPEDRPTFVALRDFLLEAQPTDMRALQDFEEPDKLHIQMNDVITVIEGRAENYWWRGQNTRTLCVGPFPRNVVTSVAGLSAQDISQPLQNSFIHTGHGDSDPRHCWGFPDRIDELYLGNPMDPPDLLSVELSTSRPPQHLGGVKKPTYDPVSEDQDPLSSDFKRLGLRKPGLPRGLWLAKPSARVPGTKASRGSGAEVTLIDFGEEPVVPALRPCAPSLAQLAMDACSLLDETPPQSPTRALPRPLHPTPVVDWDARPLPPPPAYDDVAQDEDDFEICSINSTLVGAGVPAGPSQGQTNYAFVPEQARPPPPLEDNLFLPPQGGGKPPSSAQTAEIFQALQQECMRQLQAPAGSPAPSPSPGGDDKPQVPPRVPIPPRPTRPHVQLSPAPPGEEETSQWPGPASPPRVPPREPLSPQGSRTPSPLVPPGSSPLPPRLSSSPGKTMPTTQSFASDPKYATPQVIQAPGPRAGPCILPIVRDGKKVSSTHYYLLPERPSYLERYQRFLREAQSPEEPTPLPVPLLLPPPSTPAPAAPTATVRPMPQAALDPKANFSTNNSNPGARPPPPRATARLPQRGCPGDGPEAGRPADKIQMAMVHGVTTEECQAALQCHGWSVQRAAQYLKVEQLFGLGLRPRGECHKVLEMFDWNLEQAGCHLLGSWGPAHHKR
Method: ACK1 IC50 (Table 1)
Format: biochemical
pIC50: −log10 of the molar value.

# Item Smiles, pIC50
records = [
    ("CN1CCN(c2ccc(Nc3ncc(Cl)c(NCC4CCOCC4)n3)cc2F)CC1", 7.70),
    ("COc1cc(N2CCN(C)CC2)ccc1Nc1ncc(Cl)c(NCc2ccc(F)cc2)n1", 7.36),
    ("COc1cc(N2CCN(C)CC2)ccc1Nc1ncc(Cl)c(NCc2ccc(Cl)cc2Cl)n1", 7.15),
    ("CN1CCC(c2ccc(Nc3ncc(Cl)c(NCC4CCOCC4)n3)cc2)CC1", 7.40),
    ("COc1cc(N2CCN(C)CC2)ccc1Nc1ncc(Cl)c(NCC2CCOCC2)n1", 7.83),
    ("CN1CCN(c2ccc(Nc3ncc(Cl)c(NCC4CCOCC4)n3)cc2)CC1", 7.69),
    ("CN1CCN(c2ccc(Nc3ncc(Cl)c(NCc4ccc(F)cc4)n3)cc2)CC1", 7.45),
    ("Cc1cc(Nc2ncc(Cl)c(NC[C@H]3CCCO3)n2)c(F)cc1C1CCN(C)CC1", 7.07),
    ("CN1CCC(c2cc(F)c(Nc3ncc(Cl)c(NC[C@H]4CCCO4)n3)cc2F)CC1", 7.35),
    ("COc1cc(N2CCN(C)CC2)ccc1Nc1ncc(Cl)c(NCc2ccc(C)cc2)n1", 7.29),
]

---

Measured On: ACK1 (Homo sapiens, UniProt Q07912)
Method: ACK1 IC50 (Table 1)
Format: biochemical
pIC50: −log10 of the molar value.
This section presents molecules with their documented pIC50 values.

# Item Smiles, pIC50
measured = [
    ("COc1ccc(CNc2nc(Nc3ccc(N4CCN(C)CC4)cc3OC)ncc2Cl)cc1", 7.08),
    ("COc1cc(N2CCN(C)CC2)ccc1Nc1ncc(Cl)c(NCc2ccccc2)n1", 7.32),
    ("COc1cc(C2CCN(C)CC2)ccc1Nc1ncc(Cl)c(NCC2CCOCC2)n1", 7.69),
]

---

Measured On: ACK1 (Homo sapiens, UniProt Q07912)
Method: Reaction Biology 33P Hotspot assay
Type: biochemical
// returns label 0 unless IC50 is strictly below 90 nM, in which case label 1

# Molecule, Label Class
rows = [
    ("CC(C)Oc1cc(Nc2ncc(Cl)c(NC[C@H]3CCCO3)n2)ccc1C1CCN(C)CC1", "label 1"),
    ("CN1CCN(c2ccc(Nc3ncc(Cl)c(NC[C@H]4CCCO4)n3)cc2CO)CC1", "label 1"),
    ("COCCOCc1cc(Nc2ncc(Cl)c(NC[C@H]3CCCO3)n2)ccc1N1CCN(C)CC1", "label 0"),
    ("CC(C)OCc1cc(Nc2ncc(Cl)c(NC[C@H]3CCCO3)n2)ccc1N1CCN(C)CC1", "label 0"),
    ("CN1CCN(Cc2ccc(Nc3ncc(Cl)c(NCC4CCCO4)n3)cc2)CC1 (stereo not shown)", "label 0"),
    ("CC(=O)N1CCN(c2ccc(Nc3ncc(Cl)c(NCC4CCOCC4)n3)cc2)CC1", "label 1"),
    ("CN1CCN(c2ccc(Nc3ncc(Cl)c(NC[C@H]4CCCO4)n3)cc2C#N)CC1", "label 0"),
    ("COc1cc(N2CCN(C(C)=O)CC2)ccc1Nc1ncc(Cl)c(NCC2CCOCC2)n1", "label 1"),
    ("COc1cc(Nc2ncc(Cl)c(NC[C@H]3CCCO3)n2)ccc1C1CCN(C)CC1", "label 1"),
    ("COc1cc(N2CCN(C)CC2)c(F)cc1Nc1ncc(Cl)c(NCC2CCOCC2)n1", "label 1"),
    ("CC(=O)N1CCN(c2ccc(Nc3ncc(Cl)c(NCC4CCOCC4)n3)cc2OC(C)C)CC1", "label 1"),
]

---

Measured On: ACK1 (Homo sapiens, UniProt Q07912)
Method: ACK1 ELISA
Assay type: biochemical
Stated Conditions: read-out: ACK1 ELISA % Inhibition at 100 nM

# Item Smiles, Measured On, inhibition at 0.1 µM (%)
data = [
    ("COc1cc(N2CCN(C)CC2)ccc1Nc1ncc(Cl)c(NCc2ccccc2)n1", "ACK1 (Homo sapiens, UniProt Q07912)", 98.2),
    ("CN1CCN(c2ccc(Nc3ncc(Cl)c(NCc4ccc(F)cc4)n3)cc2)CC1", "ACK1 (Homo sapiens, UniProt Q07912)", 94),
    ("COc1cc(N2CCN(C)CC2)ccc1Nc1ncc(Cl)c(NCc2ccc(C)cc2)n1", "ACK1 (Homo sapiens, UniProt Q07912)", 77.6),
    ("COc1cc(N2CCN(C)CC2)ccc1Nc1ncc(Cl)c(NCc2ccc(Cl)cc2)n1", "ACK1 (Homo sapiens, UniProt Q07912)", 67.9),
    ("COc1cc(N2CCN(C)CC2)ccc1Nc1ncc(Cl)c(NCc2ccc(F)cc2)n1", "ACK1 (Homo sapiens, UniProt Q07912)", 91.2),
    ("COc1ccc(CNc2nc(Nc3ccc(N4CCN(C)CC4)cc3OC)ncc2Cl)cc1", "ACK1 (Homo sapiens, UniProt Q07912)", 70.3),
    ("COc1cc(N2CCN(C)CC2)ccc1Nc1ncc(Cl)c(NCc2ccc(Cl)cc2Cl)n1", "ACK1 (Homo sapiens, UniProt Q07912)", 78.1),
]

Data origin, for the record: patent US12630535B2
